meta.source: patent US10800807B2

Biological target: mouse glutathione transferase-tagged FXR-LBD (Mus musculus)
Construct: mouse glutathione transferase-tagged FXR-LBD (generated in-house); made in house
Sequence (Q60641 264-488 limits assumed): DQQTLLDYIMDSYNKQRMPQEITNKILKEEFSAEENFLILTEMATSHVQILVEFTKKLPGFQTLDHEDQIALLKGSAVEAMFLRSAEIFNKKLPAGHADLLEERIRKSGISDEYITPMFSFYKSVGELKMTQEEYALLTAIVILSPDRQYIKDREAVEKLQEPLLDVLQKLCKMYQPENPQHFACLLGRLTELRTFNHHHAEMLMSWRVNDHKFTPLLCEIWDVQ
Experiment: FXR AlphaScreen coactivator recruitment assay (mouse)
Format: biochemical
Conditions: mouse FXR-LBD, value in parentheses; read-out: (mFXR) Efficacy
Field: Emax. Provide a value for each of the compounds that follow.
Put your answer as a value accompanied by its unit after it.

Example cases with answers are listed next.
CC[C@H]1[C@@H](O)[C@@H]2[C@H](CC[C@]3(C)[C@@H]([C@H](C)CCc4nn[nH]n4)[C@@H](O)C[C@@H]23)[C@@]2(C)CC[C@@H](O)C[C@@H]12; 171%
CC[C@H]1[C@@H](O)C2C3CC[C@H]([C@H](C)CC(=O)NO)[C@@]3(C)CCC2[C@@]2(C)CC[C@@H](O)C[C@@H]12 (stereo partly shown); 85%
CC[C@H]1[C@@H](O)C2C3CC[C@H]([C@H](C)CC(F)(F)C(=O)O)[C@@]3(C)CCC2[C@@]2(C)CC[C@@H](O)C[C@@H]12 (stereo partly shown); 143%
CC[C@@H]1C2C[C@H](O)CC[C@]2(C)C2CC[C@@]3(C)C(CC[C@@H]3[C@H](C)Cc3nn[nH]n3)C2[C@@H]1O (stereo partly shown); 208%
CC[C@H]1[C@@H](O)C2C3CC[C@H]([C@H](C)CCc4nn[nH]n4)[C@@]3(C)[C@@H](O)CC2[C@@]2(C)CC[C@@H](O)C[C@@H]12 (stereo partly shown); 93%
CC[C@H]1[C@@H](O)[C@@H]2[C@H](CC[C@]3(C)[C@@H]([C@H](C)CCc4nc(=O)o[nH]4)[C@@H](O)C[C@@H]23)[C@@]2(C)CC[C@@H](O)C[C@@H]12; 150%

Below: the item to evaluate.
For CC[C@H]1[C@@H](O)C2C3CC[C@H]([C@H](C)CCc4noc(=O)[nH]4)[C@@]3(C)CCC2[C@@]2(C)CC[C@@H](O)C[C@@H]12 (stereo partly shown) , what is its reported Emax?
204%
